The entries below are paired with their reported TGI.
# Test system: SW-620 colon
# assay.details: NCI tumour cell line growth inhibition, 48 h

Recorded results for 3 compounds are shown here.
O=C(O)CCO/N=C1/C(c2c(O)[nH]c3ccccc23)=Nc2ccccc21 :: > 100 µM
Cc1csc(NNC(N)=O)n1 :: > 100 µM
O=C(O)c1nc2ccc(Cl)cc2[nH]c1=O :: > 100 µM

Req: Please give the measured TGI for this compound: `O=C(O)Cc1ccc(Nc2nc3ccccc3nc2C(=O)O)cc1`
Resp: > 100 µM

Req: Which measured TGI value corresponds to `CCN(CC)c1c(-c2ccccc2)n[nH]c1C(=O)OC` ?
Resp: > 100 µM
